Please respond with reported logD for every item in the list.
assay: LogD
Please reply with the value in numeric form only.

Enquiry: Please look up its logD: `Cc1cc([C@H](Nc2ccc3c(c2)CNC3)C(=O)NCC(F)F)cc(C(F)(F)F)c1`
Return: 1

Enquiry: Please look up its logD: CC(C)NC(=O)[C@@H](Nc1ccc2c(c1)CNC2)c1cc(Cl)cc2[nH]ncc12 [ASAP-0029000]
Return: 0.5

Enquiry: Please look up its logD: `O=C(Nc1ccc2c(c1)CNC2)c1cc(Cl)cc2[nH]ncc12`
Return: 0.9

Enquiry: Please look up its logD: CC(C)NC(=O)[C@@H](Nc1ccc2c(c1)CNC2)c1cc(Cl)cc2[nH]ncc12 [ASAP-0029974]
Return: 0.5

Enquiry: Please look up its logD: `N#C[C@@H](Nc1ccc2c(c1)CNC2)c1cc(Cl)cc2[nH]ncc12`
Return: 0.9

Enquiry: Please look up its logD: `OCC#C[C@@H](Nc1ccc2c(c1)CNC2)c1cc(Cl)cc2[nH]ncc12`
Return: 0.5
